- SYSTEM: chicken IgY (chicken)
- TEST_PROTOCOL: BLI; Octet, SAX (streptavidin) biosensors; recombinant Fabs against IgY; KD from a kinetic 1:1 model, global fit over multiple concentrations (partial fits averaged for 3 low-affinity Fabs)
MEASURED_PROPERTY: pKd
# pKd: negative log10 of molar concentration; output just the value

Some solved cases for reference:
Given the binder clone 2.1 Fab TA_15 (Fab, V domains shown) VH: EVQLQESGPSLVKPSQTLSLTCSVTGDSITSGYWNWIRKFPGNKLEYMGYISYSGSTYYNPSLKSRISITRDTSKNQYYLQLNSVTTEDTATYYCARDFDVWGAGTTVTVSS VL: DIVMTQSQKFMSTSVGDRVSVTCKASQNVGTNVAWYQQKPGQSPKALIFSASYRYSGVPDRFTGSGSGTDFTLTISNVQSEDLAEYFCQQYNSYPLTFGSGTKLEIK , write its reported pKd.
7.84

Given the binder clone 2.1 Fab TA_2 (Fab, V domains shown) VH: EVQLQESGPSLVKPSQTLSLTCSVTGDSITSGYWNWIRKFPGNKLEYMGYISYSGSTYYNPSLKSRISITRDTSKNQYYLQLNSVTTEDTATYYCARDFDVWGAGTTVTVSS VL: DIVMTQSQKFMSTSVGDRVSVTCKASQNVGTNVGWYQQKPGQSPKALIYSASYRYSGVPDRFTGSGSGTDFTLTISNVQSEDLAEYFCQQYNSYPLTFGSGTKLEIK , write its reported pKd.
8.38

# ---- query binder ----
Given the binder clone 2.1 Fab TA_25 (Fab, V domains shown) VH: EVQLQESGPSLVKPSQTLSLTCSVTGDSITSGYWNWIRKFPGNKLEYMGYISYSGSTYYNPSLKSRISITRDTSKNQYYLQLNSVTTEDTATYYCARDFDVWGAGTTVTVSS VL: DIVMTQSQKFMSTSVGDRVSVTCKASQNVGTNVAWYQQKPGQSPKALIYSASYRYSGVPDRFTGSGSGTDFTLTISNVQSEDLAEYFCHQYYSYPLTFGSGTKLEIK , write its reported pKd.
8.49
